Parameter inhibition: see the listing below.
- Protocol Details: Inhibition of PKA at 100 uM

>  <Smiles Str>
CCOC(=O)Cn1sc(=O)n(-c2ccc(C(=O)OCC)cc2)c1=O

>  <inhibition / %>
81

$$$$
>  <Smiles Str>
O=c1sn(CCc2ccccc2)c(=O)n1Cc1ccc(F)cc1

>  <inhibition / %>
20

$$$$
>  <Smiles Str>
CCOC(=O)Cn1sc(=O)n(-c2cccc(C(=O)OCC)c2)c1=O

>  <inhibition / %>
87

$$$$
>  <Smiles Str>
CCOC(=O)Cn1sc(=O)n(CC(=O)N2CCCCC2)c1=O

>  <inhibition / %>
75

$$$$
>  <Smiles Str>
CCn1sc(=O)n(Cc2ccccc2)c1=O

>  <inhibition / %>
30

$$$$
>  <Smiles Str>
O=c1sn(-c2ccccc2)c(=O)n1CCCl

>  <inhibition / %>
35

$$$$

====

- Target Entity: Cyclin-dependent kinase 1 (Homo sapiens)
- Protocol Details: Inhibition of CDK1 at 100 uM

>  <Smiles Str>
CCn1sc(=O)n(Cc2ccccc2)c1=O

>  <inhibition>
15%

$$$$
>  <Smiles Str>
CCOC(=O)Cn1sc(=O)n(-c2cccc(C(=O)OCC)c2)c1=O

>  <inhibition>
18%

$$$$
>  <Smiles Str>
CCOC(=O)Cn1sc(=O)n(CC(=O)N2CCCCC2)c1=O

>  <inhibition>
15%

$$$$
